# Subject Of Test: Aryl hydrocarbon receptor (Homo sapiens) (UniProt P35869)
# Sequence (P35869 whole entry, looked up): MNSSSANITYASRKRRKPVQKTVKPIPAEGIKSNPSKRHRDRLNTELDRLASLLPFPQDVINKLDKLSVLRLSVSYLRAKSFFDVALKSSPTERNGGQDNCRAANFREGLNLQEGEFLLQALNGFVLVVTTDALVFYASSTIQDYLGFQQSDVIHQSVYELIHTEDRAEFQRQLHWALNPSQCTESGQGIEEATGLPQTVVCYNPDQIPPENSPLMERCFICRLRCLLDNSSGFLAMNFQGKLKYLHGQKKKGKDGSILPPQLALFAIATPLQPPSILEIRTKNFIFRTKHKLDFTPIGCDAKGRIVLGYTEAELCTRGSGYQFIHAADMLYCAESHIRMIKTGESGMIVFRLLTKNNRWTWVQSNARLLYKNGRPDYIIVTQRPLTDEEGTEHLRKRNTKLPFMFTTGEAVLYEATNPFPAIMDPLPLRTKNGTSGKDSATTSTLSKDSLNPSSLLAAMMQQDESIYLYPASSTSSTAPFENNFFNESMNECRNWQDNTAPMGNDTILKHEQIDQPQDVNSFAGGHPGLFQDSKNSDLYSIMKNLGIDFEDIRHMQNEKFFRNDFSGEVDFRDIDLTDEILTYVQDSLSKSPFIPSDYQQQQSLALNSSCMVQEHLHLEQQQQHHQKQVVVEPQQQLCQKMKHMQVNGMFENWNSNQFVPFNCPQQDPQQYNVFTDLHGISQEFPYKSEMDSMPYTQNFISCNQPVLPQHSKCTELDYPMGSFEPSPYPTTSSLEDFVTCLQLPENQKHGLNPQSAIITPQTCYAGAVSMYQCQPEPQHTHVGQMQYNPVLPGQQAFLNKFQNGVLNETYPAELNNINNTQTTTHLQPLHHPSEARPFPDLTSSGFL
# Assay Details: ATG_Ahr_CIS: Attagene CIS-FACTORIAL HepG2 Assay for human Aryl Hydrocarbon Receptor (Ahr) (AID 2282930)
# Condition Context: HepG2 AhR cis-factorial reporter transcription; actives raise or lower the signal
Active and inactive are the calls of the source. Rule for the calls: active = hit-call score of the fitted dose curve at least 0.9, where 1 is the maximum; inactive = score below 0.9.
Pick one and only one: yes for active, no for inactive

compound=CCCCc1ccc(O)cc1 category=no
compound=CCOc1ccc(C(C)(C)COCc2cccc(Oc3ccccc3)c2)cc1 category=no
compound=Clc1ccc(Oc2ccccc2)cc1 category=no
compound=COP(=O)(CCC(=O)NCO)OC category=no
compound=Oc1ccccc1Br category=no

*Q* Identify the outcome logged in this assay for the compound shown: CC(O)C(F)(F)C(F)(F)F (configuration not stated)
*A* no

*Q* And the next one, O=c1[nH]c2ccccc2c(=O)o1 ?
*A* yes

*Q* And the next one, COP(N)(=S)OC ?
*A* no

*Q* And the next one, CCCCC(CC)COC(=O)c1c(Br)c(Br)c(Br)c(Br)c1C(=O)OCC(CC)CCCC (configuration not stated) ?
*A* no

*Q* And the next one, CCCN(CCC)c1c([N+](=O)[O-])cc(C(C)C)cc1[N+](=O)[O-] ?
*A* no

*Q* And the next one, COP(=O)(O)OC ?
*A* no

*Q* And the next one, CCOS(=O)(=O)OCC ?
*A* no
